IC50: recorded values
- measured_on: human DHODH (Homo sapiens)
Answer with a number only, understood to be in nM.

Example entries and their recorded answers appear below.
[[record]]
molecule = "CCn1c(CO)nn(-c2ccc3c(c2)C(c2ccccc2)CN(c2cccc(F)c2)C3=O)c1=O (racemic)"
measured_on = "human DHODH (Homo sapiens)"
numeric_readout = 1030

[[record]]
molecule = "CCn1c(CO)nn(-c2ccc3c(c2)C(C(C)C)CN(c2c(F)cccc2Cl)C3=O)c1=O (racemic)"
measured_on = "human DHODH (Homo sapiens)"
numeric_readout = 20


Could you now consider this next molecule?
Known value: human DHODH (Homo sapiens) IC50 of the molecule CCn1c(CO)nn(-c2cc3c(cc2F)C(=O)N(c2c(F)cccc2Cl)CN3C2CCC2)c1=O equals 3

* * *

- measured_on: human DHODH (Homo sapiens, UniProt Q02127)
- Sequence (Q02127 whole entry): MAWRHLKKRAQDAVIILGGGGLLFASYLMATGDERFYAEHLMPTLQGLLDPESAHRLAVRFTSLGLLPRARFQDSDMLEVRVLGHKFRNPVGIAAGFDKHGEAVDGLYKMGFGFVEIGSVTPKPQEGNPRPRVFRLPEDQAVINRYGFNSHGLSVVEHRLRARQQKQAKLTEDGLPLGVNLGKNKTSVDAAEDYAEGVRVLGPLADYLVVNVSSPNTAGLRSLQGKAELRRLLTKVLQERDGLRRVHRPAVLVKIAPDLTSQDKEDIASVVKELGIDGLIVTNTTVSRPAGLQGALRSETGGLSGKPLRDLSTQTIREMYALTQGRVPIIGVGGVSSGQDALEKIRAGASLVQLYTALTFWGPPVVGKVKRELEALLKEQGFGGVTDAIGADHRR
pIC50: −log10 of the molar value.
Measured pIC50 by item

Check out these entries, answers already filled in.
[[record]]
compound = "CCn1c(CO)nn(-c2cc3c(cc2F)C(=O)N(c2c(C)cnc(OC)c2Cl)CC3C(C)C)c1=O (single isomer, unassigned)"
result = "< 7.00"

[[record]]
compound = "C=C(C)[C@@H]1CN(c2c(C)cnc(OC)c2C)C(=O)c2cc(F)c(-n3nc(CO)n(CC)c3=O)cc21 (single isomer, unassigned; atropisomer 2)"
result = "< 7.00"


The record that follows has no pIC50 shown yet.
Data point: C=C(C)C1CN(c2c(Cl)ccnc2C)C(=O)c2cc(F)c(-n3nc(CO)n(CC)c3=O)cc21 (racemic) ; pIC50 = < 7.00
